- assayContext: buffer; pH 7.4; 200.0 µM
Assignment: determine reported solubility kinetic for the given molecules.
The reply should be a number in µg/mL, with the unit left off.

[ask] I am curious: what solubility kinetic value has been reported for "Cc1ccccc1CNC(=O)CN1C(=O)c2ccccc2S1(=O)=O" ?
[reply] 11.2

[ask] Same again, this time with COC(=O)C1=C(C)NC(=O)NC1c1ccc2c(c1)OCO2 (stereo not given)
[reply] 37.3

[ask] Also "COc1ccccc1C(=O)NCCNC(=O)c1ccc(C)nc1" ?
[reply] 45.7

[ask] Do the same for "Cc1ccc(S(=O)(=O)N2CCCCCC2)cc1C(=O)NCc1ccccn1" please
[reply] 55.7

[ask] Also, "O=C(Nc1cccc(Cl)c1)N1CCCCCC1" please.
[reply] 5.1

[ask] Input "Cc1ccc(CCCOC(=O)CN2CCCCC2)cc1"
[reply] 23.5

[ask] Param item: "N#Cc1ccc(-c2nc3ccc(Br)cc3c(=O)n2O)cc1"
[reply] 18.1

[ask] Next molecule: "Cc1ccc(C(=O)NC(=S)NCc2cccnc2)cc1C"
[reply] 26.9

[ask] Next molecule up: Cn1cccc1C1C(C#N)=C(N)OC2=C1C(=O)CC(C)(C)C2 (stereo not given)
[reply] 43.2

[ask] Continue with "O=C(Nc1ccccc1F)Nc1cccnc1Cl"
[reply] 7.8

[ask] Next up: "Fc1ccccc1CNc1ncnc2sccc12"
[reply] 9.9

[ask] Then this molecule: "N#Cc1ccc(-c2cccnc2)nc1SCC(N)=O"
[reply] 38.2

[ask] Now the same for "O=[N+]([O-])c1ccccc1OCCN1CCCC1"
[reply] 25.5

[ask] Next molecule up: "CC(C)Oc1cccc(OCCN2C(=O)c3ccccc3C2=O)c1"
[reply] 13.8

[ask] Okay, and "O=C(Nc1ccc(F)cc1)c1ccc(CSc2ccc(Cl)cc2)o1" ?
[reply] 4.3

[ask] Then what about the molecule "O=C(CCN1C(=O)c2ccccc2C1=O)NCc1cccc(Cl)c1" ?
[reply] 32.4

* * *

- assayContext: buffer; pH 7.4; 200.0 µM
observedProperty: solubility kinetic (µg/mL)
// note: answer is a bare numeric in µg/mL

[ask] Which solubility kinetic is reported for this molecule? "COc1ccc2nc(N/C(N)=N/S(C)(=O)=O)nc(C)c2c1"
[reply] 3.1

[ask] Queued: COc1ccc(C(C)NC(=O)CC23CC4CC(CC(C4)C2)C3)cc1 (stereo unspecified)
[reply] 19.7

[ask] "O=C(NCCOC(=O)c1ccccc1)c1ccc([N+](=O)[O-])cc1" ?
[reply] 14

[ask] And "O=C(NCCc1ccccc1)c1cccc(Br)c1" ?
[reply] 10

[ask] How about this molecule: "Cc1ccc(C)c(NC(=O)N2CCc3ccccc3C2)c1"
[reply] 18.9

[ask] Same question, "O=C(NCCCn1ccnc1)/C(=C/c1ccco1)NC(=O)c1cccs1" this time
[reply] 50.1

[ask] Please give the result for CC(NS(=O)(=O)c1ccc2[nH]c(=O)c(=O)[nH]c2c1)C(=O)O (stereo unspecified) too.
[reply] 13.9

[ask] How about "COc1ccc(/C=C/C2=Nc3ccccc3NC(C)(C)C2)cc1OC" ?
[reply] 43

* * *

- assayContext: buffer; pH 7.4; 200.0 µM
observedProperty: log10(solubility kinetic) (log10 of the value in µg/mL)
The common logarithm of solubility kinetic in µg/mL is what is listed.

[ask] Dear colleague, I am looking for the recorded log10(solubility kinetic) of the following compound: "COc1ccc(NC(=O)CCc2nc3ccccc3c(=O)[nH]2)cc1S(=O)(=O)N1CCCCC1"
[reply] 0.98

[ask] Also "CCN(CC)Cc1nc2sc(C)c(C)c2c(=O)[nH]1" ?
[reply] 1.54

[ask] What do you have for "O=C(NCCCn1ccnc1)c1cc(-c2cccc(O)c2)on1" ?
[reply] 1.60

[ask] Item: COC(=O)c1ccc2[nH]c3c(c2c1)CC(C)CC3 (configuration not stated)
[reply] -0.05

[ask] Do the same for "CCCCOc1ccc(C(=O)Oc2cccnc2)cc1" please
[reply] 0.18

[ask] Quick one: CNC(=O)NC(=O)C(C)Oc1ccccc1F (configuration not stated)
[reply] 1.54
